# assay-details: xn = mol fraction of the nth substance listed
# cond: 313.15 K; 16010 kPa; Liquid; Taylor dispersion method; x1 = 0
Where “and” joins values, the source holds several entries; their conditions need not be identical. Equal entries are not always repeated.
observation-type: binary diffusion coefficient

Example cases with answers are listed next.
compound	binary diffusion coefficient
[CH]1C=CC=C1.[CH]1C=CC=C1.[Fe] [ferrocene] + CCCCCC	3.13e-09 m2/s
C[c-]1cccc1.C[c-]1cccc1.[Fe+2] [1,1'-dimethylferrocene] + C1CCCCC1	1.14e-09 m2/s
[CH]1C=CC=C1.[CH]1C=CC=C1.[Fe] [ferrocene] + C1CCCCC1	1.25e-09 m2/s
C[c-]1cccc1.C[c-]1cccc1.[Fe+2] [1,1'-dimethylferrocene] + CCCCCC	2.9e-09 m2/s

// query May I ask what binary diffusion coefficient has been recorded for CCc1ccc[cH-]1.[Fe+2].c1cc[cH-]c1 [ethyl ferrocene] + CCCCCC ?
// result 2.86e-09 m2/s and 2.89e-09 m2/s

Cited source: the NIST ThermoML archive (doi:10.1016/j.fluid.2010.06.003)
